System: glycogen synthase kinase-3 (GSK3A per assay name; protocol says GSK3B)
Assay: GSK3 binders on small-molecule microarrays, primary screen, biochemical, small-molecule microarray, 635 nm fluorescence, GSK3A (AID 1103); also: the record names both GSK3A and GSK3B
Conditions: small-molecule microarray binding, fluorescence 635 nm; higher = more signal
Okay, here is how we bin by composite z-score: one: < 0.08; two: ≥ 0.08 and < 0.5; three: ≥ 0.5

Here's what some known entries look like.
* CO[C@H]1COC(=O)[C@@H]2CCCN2C(=O)CC=C[C@@H](C)[C@H](OC)COC(=O)[C@@H](OCc2ccccc2)C=C[C@@H]1C | two
* CO[C@H]1COC(=O)CC=C[C@H](C)[C@@H](OC)COC(=O)[C@@H](C)COC(=O)CC=C[C@@H]1C | three
* CCOC(=O)[C@H](Cc1ccccc1)NC(=O)CCC1CC(OC(=O)NCCc2ccc(F)cc2)CC2(CCCC(COC(=O)NCc3ccccc3)O2)O1 (stereo partly specified) | three

Incoming: GET /class?item= C=COC[C@@H]1CN2[C@@H](CC[C@@H](C)[C@@H]2c2ccc(Br)cc2)C(=O)O1
Outgoing: one

Incoming: Likewise for CCOC(=O)[C@H](Cc1ccccc1)NC(=O)CCC1CC(OC(=O)NCc2cccc3ccccc23)CC2(CCCC(COC(=O)NCC(c3ccccc3)c3ccccc3)O2)O1 (stereo partly specified) ?
Outgoing: three

Incoming: Likewise for CCc1cc2c(nc1CC)CCN(CCC(C)=NOC[C@H]1O[C@H](c3ccccc3)C=C[C@@H]1Oc1ccc(OC)cc1)C2 ?
Outgoing: one

Incoming: Likewise for CC(C)=CCCC(C)=CCON=C1C[C@@H](O)[C@@H](O)[C@@H]2[C@@H]3C(=O)N(C4CCCCC4)C(=O)[C@@H]3CC[C@@H]12 ?
Outgoing: one

Incoming: Likewise for C[C@H]1CC[C@H]2C(=O)OC(CO)CN2[C@@H]1c1ccc(Br)cc1 (stereo partly specified) ?
Outgoing: one

* * *

Molecular target: Focal adhesion kinase 1 (Homo sapiens) (UniProt Q05397)
Sequence (Q05397 whole entry, looked up): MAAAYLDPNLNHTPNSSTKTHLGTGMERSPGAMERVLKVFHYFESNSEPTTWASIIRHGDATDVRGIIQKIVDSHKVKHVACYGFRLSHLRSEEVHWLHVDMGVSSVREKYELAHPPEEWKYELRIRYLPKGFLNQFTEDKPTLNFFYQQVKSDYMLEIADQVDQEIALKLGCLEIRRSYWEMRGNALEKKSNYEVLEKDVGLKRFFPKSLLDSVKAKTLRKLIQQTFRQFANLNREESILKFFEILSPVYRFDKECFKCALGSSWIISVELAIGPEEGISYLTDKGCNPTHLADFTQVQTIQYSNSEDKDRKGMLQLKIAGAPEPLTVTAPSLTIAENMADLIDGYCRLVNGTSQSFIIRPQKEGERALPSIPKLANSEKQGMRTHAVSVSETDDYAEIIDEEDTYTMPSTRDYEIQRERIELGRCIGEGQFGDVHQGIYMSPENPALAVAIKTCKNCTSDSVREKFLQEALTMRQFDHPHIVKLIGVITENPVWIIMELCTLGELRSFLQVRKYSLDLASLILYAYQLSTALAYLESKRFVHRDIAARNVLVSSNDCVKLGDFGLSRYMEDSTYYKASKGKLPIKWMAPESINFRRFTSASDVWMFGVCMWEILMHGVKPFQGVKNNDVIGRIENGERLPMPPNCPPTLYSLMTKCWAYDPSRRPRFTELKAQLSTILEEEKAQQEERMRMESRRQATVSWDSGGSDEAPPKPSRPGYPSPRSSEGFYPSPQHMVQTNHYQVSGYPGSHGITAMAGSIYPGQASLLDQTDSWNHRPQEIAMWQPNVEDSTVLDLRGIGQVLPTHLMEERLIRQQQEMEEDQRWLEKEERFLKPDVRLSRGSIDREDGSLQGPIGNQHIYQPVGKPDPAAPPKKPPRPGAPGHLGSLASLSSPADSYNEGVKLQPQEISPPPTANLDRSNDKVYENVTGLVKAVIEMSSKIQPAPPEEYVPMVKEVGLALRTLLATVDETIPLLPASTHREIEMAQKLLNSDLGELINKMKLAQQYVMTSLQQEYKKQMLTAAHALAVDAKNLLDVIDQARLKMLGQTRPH
Assay: small-molecule microarray binders of FAK, primary screen, biochemical, 635/667 nm fluorescence, BSA, DTT (AID 1130);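 also: composite of spot emission at 667 nm and signal to noise over triplicate slides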
Conditions: PTK2 binding, 635 nm fluorescence, higher = more signal
Parameter threshold = 0.4. Response is label 1 when composite z-score meets or exceeds it, else label 0.

Here's what some known entries look like.
* COC(=O)CC=C[C@H](C)[C@@H](OCc1cccc(Br)c1)[C@@H](C)[C@H](OC)C1CCCCC1 | label 0
* C=CC1=C[C@H](O)[C@@H]2O[C@@H]2C12OCCCO2 | label 0
* CC(CCN1CCc2nc(-c3ccccc3)c(-c3ccccc3)cc2C1)=NOC[C@@H](O)COCc1ccco1 | label 1
* CCCNC(=O)OC[C@H]1O[C@H](CCON=C(C)CCN2CCCc3nc(C)c(C)cc32)C=C[C@@H]1Oc1ccc(OC)cc1 | label 1
* CC(C)CCN1CCc2nc(COc3ccccc3)c3c(c2C1)CO[C@@H](C)C3 | label 0
* C=CC[C@@H]1C=C[C@H](ON=C(C)CCC(=O)OC[C@H]2O[C@H](c3ccccc3)C=C[C@@H]2Oc2ccc(OC)cc2)[C@@H](CO)O1 | label 0

Incoming: Check the entry CON=C[C@@H](NS(=O)(=O)c1ccc(C)cc1)[C@H](C)C=CCC(=O)OC : does composite z-score equal or exceed 0.4?
Outgoing: label 1

Incoming: Likewise for COc1cccc([C@H]2Oc3ccc(OC)cc3C(=NOC[C@@H](C)[C@H](OCc3ccccc3)C(C)C)[C@@H]2O)c1 ?
Outgoing: label 0

Incoming: Likewise for COc1ccc(COC(=O)NN=C2C[C@@H](O)[C@@H](O)[C@@H]3[C@@H]4C(=O)N(Cc5ccccc5)C(=O)[C@@H]4CC[C@H]23)cc1 ?
Outgoing: label 0

Incoming: Likewise for C=C(C)C(=O)OCC1CN2[C@@H](CC[C@@H](C)[C@@H]2c2ccc(Br)cc2)C(=O)O1 (stereo partly specified) ?
Outgoing: label 1

Incoming: Likewise for C=Cc1ccc([C@H]2N[C@H](C(=O)O)CC[C@@H]2C)cc1 ?
Outgoing: label 0

Incoming: Likewise for CCOC(=O)[C@H](Cc1ccccc1)NC(=O)CCC1CC(OC(=O)NCc2cccc3ccccc23)CC2(CCCC(COC(=O)NCC(c3ccccc3)c3ccccc3)O2)O1 (stereo partly specified) ?
Outgoing: label 0

* * *

Experiment: small-molecule microarray binders of probe aWnt5a, primary screen, biochemical, biotinylated probe, 635/667 nm fluorescence (AID 1113);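 also: score merges 667 nm fluorescence intensity with signal-to-noise per printed feature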
Conditions: higher = more signal
Reported composite z-score values follow for various molecules
Just the number.

In the examples that follow, each entry is paired with its recorded composite z-score.
- CCOC(=O)NN=C1C[C@@H](O)[C@@H](O)[C@@H]2[C@@H]3C(=O)N(Cc4ccc5c(c4)OCO5)C(=O)[C@@H]3CC[C@H]12: -0.129
- O=c1n(Cc2cc3c(cc2Cl)OCO3)c(=O)n2n1CC[C@@H]1C(=NOCc3ccccc3)[C@H]3O[C@H]3[C@@H](O)[C@@H]12: -0.152
- CCOC(=O)[C@H](Cc1ccccc1)NC(=O)OC1CC(CCC2CC(CC)=NO2)OC2(CCCC(COC(=O)NCCC(C)C)O2)C1 (some centres not stated): 0.0292
- COC(=O)CC=C[C@@H](C)[C@@H](C=NOC[C@H]1O[C@H](c2ccccc2)C=C[C@@H]1Oc1ccc(OC)cc1)NS(=O)(=O)c1ccc(C)cc1: -0.147
- CC(C)=CCCC(C)=CCON=C1C[C@@H](O)[C@@H](O)[C@@H]2[C@@H]3C(=O)N(C[C@@H]4CCCO4)C(=O)[C@@H]3CC[C@H]12: -0.0783

Incoming: Could you tell me which composite z-score is on file for CC(C)=NOC[C@@H](C)[C@H](OCc1ccccc1)C(C)C ?
Outgoing: -0.0758

Incoming: Likewise for CC(=O)OC[C@H]1O[C@H](CCON=C2[C@H]3CCn4c(=O)n(-c5ccccc5)c(=O)n4[C@H]3[C@H](O)[C@@H]3O[C@H]23)C=C[C@@H]1OC(C)=O ?
Outgoing: 0.0001

* * *

Reported composite z-score values follow for various compounds
Test: binders of probe aFGF2 on microarray, primary screen, stem cell growth factor project, biochemical, small-molecule microarray, fluorescence 635/667 (AID 1067);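 also: measures binding of biotinylated aFGF2 protein to printed compounds on slides; z-score merges feature fluorescence and signal-to-noise across triplicate slides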
Settings: higher = more signal
Just the number.

In the examples that follow, each entry is paired with its recorded composite z-score.
- COC(=O)CC=C[C@@H](C)[C@@H](C=NO[C@@H](C)c1cn([C@H](CO)Cc2ccccc2)nn1)OC: -0.119
- O=C1CCCC=C1C(O)CCCCBr (stereo not drawn): -0.0695
- CO[C@H]1COC(=O)CC=C[C@@H](C)[C@H](OC)COC(=O)CCC[C@@H]1C: -0.187
- CCOC(=O)NN=C1C[C@@H](O)[C@@H](O)[C@@H]2[C@@H]3C(=O)N(C(C)(C)C)C(=O)[C@@H]3CC[C@H]12: -0.163
- O=C1C[C@@H](O)[C@@H](O)[C@@H]2[C@@H]3C(=O)N(Cc4ccc5c(c4)OCO5)C(=O)[C@@H]3CC[C@H]12: -0.0218
- COC(=O)CC=C[C@@H](C)[C@@H](C=NO[C@H](C)c1cn([C@@H]2COC[C@H]2O)nn1)NS(=O)(=O)c1ccc(C)cc1: -0.0027

Incoming: Could you tell me which composite z-score is on file for CC(C)=CCCC(C)=CCON=C1C[C@@H](O)[C@@H](O)[C@@H]2[C@@H]3C(=O)N(C(C)(C)C)C(=O)[C@@H]3CC[C@@H]12 ?
Outgoing: -0.0473

Incoming: Likewise for CCOC(=O)[C@H](CC(C)C)NC(=O)CCC1CC(OC(=O)NCc2cccc3ccccc23)CC2(CCCC(COC(=O)NCCCN3CCCC3=O)O2)O1 (stereo partly drawn) ?
Outgoing: -0.131

* * *

Molecular target: Luciferin 4-monooxygenase (Photinus pyralis) (UniProt P08659)
Sequence (P08659 whole entry, looked up): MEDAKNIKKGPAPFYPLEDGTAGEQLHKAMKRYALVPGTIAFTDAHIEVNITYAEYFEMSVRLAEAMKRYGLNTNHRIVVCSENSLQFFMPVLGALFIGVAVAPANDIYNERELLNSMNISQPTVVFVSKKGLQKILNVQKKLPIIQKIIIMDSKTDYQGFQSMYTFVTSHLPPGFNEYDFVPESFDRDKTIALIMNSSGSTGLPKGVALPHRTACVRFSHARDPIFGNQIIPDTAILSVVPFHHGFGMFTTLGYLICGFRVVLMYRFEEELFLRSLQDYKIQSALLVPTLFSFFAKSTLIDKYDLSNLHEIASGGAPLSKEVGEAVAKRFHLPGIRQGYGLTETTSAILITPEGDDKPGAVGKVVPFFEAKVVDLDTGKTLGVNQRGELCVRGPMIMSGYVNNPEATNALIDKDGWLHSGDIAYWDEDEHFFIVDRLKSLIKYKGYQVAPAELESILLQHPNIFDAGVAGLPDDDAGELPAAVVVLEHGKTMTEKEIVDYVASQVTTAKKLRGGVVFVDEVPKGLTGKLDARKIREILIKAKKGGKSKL
Test: firefly luciferase enzyme inhibitors, primary screen, biochemical, luminescence, purified enzyme, 2006 set (AID 1141);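 also: cell-free assay with purified firefly luciferase at 100 ng per well in PBS; test concentration not given here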
Details: SteadyGlo luminescence, 30 min, higher = more signal, called active from +8 up or from −8 down
Parameter threshold = -0.2. Response is true when z-score meets or exceeds it, else false.

Here's what some known entries look like.
• CCOC(=O)[C@H](Cc1ccccc1)NC(=O)CCC1CC(OC(=O)NCc2cccc3ccccc23)CC2(CCCC(COC(=O)NCC(c3ccccc3)c3ccccc3)O2)O1 (stereo not given in full) = true
• C=CC[C@@H]1C=C[C@H](ON=C(C)CCC(=O)OC[C@H]2O[C@H](c3ccccc3)C=C[C@@H]2Oc2ccc(OC)cc2)[C@@H](CO)O1 = false
• CCOC(=O)C1=NO[C@@]2(C=C(Br)C3(OCCCO3)[C@H]3O[C@H]32)C1 = false

Could you now consider this next molecule?
Incoming: Check the entry COC(=O)CC=C[C@@H](C)[C@@H](C=NO[C@H](C)c1cn([C@H](CO)Cc2ccccc2)nn1)NS(=O)(=O)c1ccc(C)cc1 : does z-score equal or exceed -0.2?
Outgoing: false
